The reader will find reported GI50 values listed item by item below.
- Tested on: IGROV-1
- test-name: NCI tumour cell line growth inhibition, 48 h
The source made the active and inactive calls. Cut-off read from the data, not from the text of the source: active = GI50 up to about 1.1 µM and inactive = higher.

>  <compound>
CCCC#CC(O)(C(=O)OC1CCN(C)CC1)C1CCCCC1 (stereo not given)

>  <GI50>
> 100 µM (inactive)

$$$$
>  <compound>
Oc1ccc2ccccc2c1CN(Cc1c(O)ccc2ccccc12)C1CCCCC1

>  <GI50>
11.8 µM (inactive)

$$$$
>  <compound>
CCCCCCCCCCCc1cc(=O)c2c(O)cccc2o1

>  <GI50>
> 100 µM (inactive)

$$$$
>  <compound>
Cc1ccccc1C(CCCO)C(=O)O (stereo not given)

>  <GI50>
> 100 µM (inactive)

$$$$
>  <compound>
CC1(CC(=O)O)OC2CCCCCC2O1.NCc1ccccc1 (stereo not given)

>  <GI50>
> 100 µM (inactive)

$$$$

Entry source: ChEMBL document CHEMBL1201862
